Source listed as patent US20260258115A1.

# Assay System: RSV prefusion F (preF, DS-Cav1) (Respiratory syncytial virus)
# Assay Summary: BLI, IgG on sensor, 100 nM antigen
// values below are reported Kd
Write the value in nM as a bare number.

Consider the following illustrative entries.
| Binder | Kd, nM |
| --- | --- |
| ADI-41307 (antibody, V domains shown) VH: QVQLVESGGGLVKPGGSLRLSCAASGFPLSPYALNWVRQAPGKGLEWVSSITSSSAYIYYADSVKGRFTVSRDNPTNSLYLQMNSLRAEDTAVYYCARTIPQHYYDNNGDYYNYGMDVWGQGTTVTVSS VL: DIVLTQSPATLSVSPGQRITLSCRASQTVRSNLAWYQQKPGQPPRLLIYGASTRATGVPARFTGSGSGTEFTLTITSLQSDDFAVYYCHQYNDRPLTFGPGTKVEIK | 2.99 |
| ADI-41248 (antibody, V domains shown) VH: QVQLVQSGGGVVQPGRSLRLSCAASGFTFSSYSMHWVRQAPGKGLEWMAVCWYDGSNIYYADSVKGRFTISRDNSKNTVYLQMNSLRAEDTAVYYCARDDRYCSGGTCLSAFDIWGQGTMVTVSS VL: ETTLTQSPSSLSASVGDRVTITCRASQSISSYLNWYQQKPGRAPKLLIYTTSSLQSGVSSRFSGSGSGTDFTLTINSLQPEDFATYYCQQSYSTPNTFGQGTKVEIK | 3.35 |

Note: attention shifts to another entry.
Provide measured Kd value, entry: ADI-41294 (antibody, V domains shown) VH: EVQLLESGGGLVQPGGSLRLSCAASGFTFSAYEMNWVRQAPGKGLEWVSYISSSGSNKHYADSVKGRFTISRDNAKNSLHLHMNSLRAEDTALYYCTRPHQEEWELLPNDAFDLWGQGTMVTVSS VL: QSALTQPPSASGSPGQSVTISCTGTSTDVGAYTYVSWYQQHPGKAPKLIIYEVYKRPSGVPNRFFGSKSGNTASLTVSGLQAEDEADYYCSSYGGSNNFGLFGGGTKLIVL
0.512
